Biological target: Glucocorticoid receptor (Homo sapiens)
Sequence (P04150 whole entry): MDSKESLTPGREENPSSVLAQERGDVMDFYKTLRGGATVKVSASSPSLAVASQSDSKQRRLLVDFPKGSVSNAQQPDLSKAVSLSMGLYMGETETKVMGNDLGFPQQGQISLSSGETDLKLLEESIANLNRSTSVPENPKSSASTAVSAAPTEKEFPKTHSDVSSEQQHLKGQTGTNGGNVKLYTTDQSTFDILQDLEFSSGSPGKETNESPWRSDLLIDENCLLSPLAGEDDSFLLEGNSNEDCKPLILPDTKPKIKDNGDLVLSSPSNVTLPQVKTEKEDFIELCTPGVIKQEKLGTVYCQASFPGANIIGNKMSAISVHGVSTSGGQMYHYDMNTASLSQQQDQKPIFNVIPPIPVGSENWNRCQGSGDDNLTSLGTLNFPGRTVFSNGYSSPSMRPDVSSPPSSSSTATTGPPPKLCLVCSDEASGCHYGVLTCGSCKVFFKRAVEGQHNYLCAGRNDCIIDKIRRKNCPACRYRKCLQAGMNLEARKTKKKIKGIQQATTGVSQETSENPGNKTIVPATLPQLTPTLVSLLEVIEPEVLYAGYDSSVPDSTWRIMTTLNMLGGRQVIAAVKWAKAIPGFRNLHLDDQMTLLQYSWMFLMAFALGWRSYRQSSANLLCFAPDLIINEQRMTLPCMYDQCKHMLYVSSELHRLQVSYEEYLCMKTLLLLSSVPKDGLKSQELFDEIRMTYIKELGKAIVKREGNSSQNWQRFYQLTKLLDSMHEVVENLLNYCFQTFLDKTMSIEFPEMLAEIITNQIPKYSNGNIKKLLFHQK
Experiment: Inhibition of CHO-K1 cells expressing glucocorticoid receptor
MEASUREMENT_TYPE: log10(IC50) (log10 of the value in nM)
# values: log10(IC50), units nM

// query log10(IC50) value for entry CCCCCCCC[C@H]1C[C@@]2(C)C(CC[C@@H]2O)C2CCC3=CC(=O)CCC3=C21 (stereo not given in full) 2.99

// query log10(IC50) value for entry CCCCC[C@H]1C[C@@]2(C)C(CC[C@@H]2O)C2CCC3=CC(=O)CCC3=C21 (stereo not given in full) 2.10

// query log10(IC50) value for entry CC[C@H]1C[C@@]2(C)C(CC[C@@H]2O)C2CCC3=CC(=O)CCC3=C21 (stereo not given in full) 3.11

// query log10(IC50) value for entry CCCCCCCCCCCC[C@H]1C[C@@]2(C)C(CC[C@@H]2O)C2CCC3=CC(=O)CCC3=C21 (stereo not given in full) 2.94

// query log10(IC50) value for entry CCCCCCCCCC[C@H]1C[C@@]2(C)C(CC[C@@H]2O)C2CCC3=CC(=O)CCC3=C21 (stereo not given in full) 3.26
